biological target: EGFR exon 20 SVD Ins D770_N771 (Ba/F3 cells) (Homo sapiens, UniProt P00533, INS770SVD); construct: expressed in transfected cells; host or cells: Ba/F3 (murine pro-B cells), retroviral transduction, puromycin selection, IL3-independent pool; experiment: Inhibitor activity on EGFR-dependent cell growth (CellTiter-Glo, 72 h), Ba/F3 EGFR exon 20 SVD Ins; format: cell-based; settings: read-out: BaF3 SVD IC50
Sequence (P00533 with tags, fused parts or gaps INS770SVD): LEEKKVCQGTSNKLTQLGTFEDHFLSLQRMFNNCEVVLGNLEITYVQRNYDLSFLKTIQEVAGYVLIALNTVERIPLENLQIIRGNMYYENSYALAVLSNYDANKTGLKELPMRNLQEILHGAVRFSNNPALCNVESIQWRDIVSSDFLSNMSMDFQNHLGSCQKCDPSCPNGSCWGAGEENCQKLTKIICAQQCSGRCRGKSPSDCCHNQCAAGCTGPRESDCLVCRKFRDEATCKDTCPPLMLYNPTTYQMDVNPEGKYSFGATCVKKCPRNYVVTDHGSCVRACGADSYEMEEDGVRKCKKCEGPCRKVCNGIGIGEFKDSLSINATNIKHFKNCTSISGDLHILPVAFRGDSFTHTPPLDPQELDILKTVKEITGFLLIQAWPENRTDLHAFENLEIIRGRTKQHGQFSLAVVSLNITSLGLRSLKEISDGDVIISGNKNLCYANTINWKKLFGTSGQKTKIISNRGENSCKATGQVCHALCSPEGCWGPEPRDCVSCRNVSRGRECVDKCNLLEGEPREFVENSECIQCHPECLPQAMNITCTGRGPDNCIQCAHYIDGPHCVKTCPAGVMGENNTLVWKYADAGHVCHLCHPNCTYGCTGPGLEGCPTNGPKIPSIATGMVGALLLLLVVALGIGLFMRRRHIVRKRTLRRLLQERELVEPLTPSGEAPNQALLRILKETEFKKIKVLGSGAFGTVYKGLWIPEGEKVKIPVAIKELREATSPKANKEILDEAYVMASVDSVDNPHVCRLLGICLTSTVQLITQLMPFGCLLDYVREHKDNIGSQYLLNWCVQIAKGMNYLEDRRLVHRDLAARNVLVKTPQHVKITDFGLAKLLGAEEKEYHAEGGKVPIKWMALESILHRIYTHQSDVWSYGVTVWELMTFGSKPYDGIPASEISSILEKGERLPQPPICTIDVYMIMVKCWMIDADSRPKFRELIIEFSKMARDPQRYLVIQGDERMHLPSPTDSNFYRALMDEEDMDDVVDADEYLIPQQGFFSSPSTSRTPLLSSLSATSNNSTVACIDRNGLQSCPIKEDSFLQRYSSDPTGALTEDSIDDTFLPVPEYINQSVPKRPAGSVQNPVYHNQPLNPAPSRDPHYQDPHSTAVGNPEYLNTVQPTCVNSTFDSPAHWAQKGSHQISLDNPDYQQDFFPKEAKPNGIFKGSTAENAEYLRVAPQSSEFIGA
quantity: IC50

Please give measured IC50 of the following entry: COc1c(Cl)cccc1Nc1c(-c2ccnc3ccc(C)nc23)[nH]c2c1C(=O)NCC2
< 100 nM

Check the records and state IC50 for CCO[C@H](C)c1ccc2nccc(-c3[nH]c4c(c3Nc3cccc(Cl)c3OC)C(=O)NCC4)c2n1
< 100 nM

Given COc1c(F)cccc1Nc1c(-c2nc(N)ncc2F)[nH]c2c1C(=O)NCC2 , respond with its IC50.
> 1000 nM

Please indicate IC50 recorded for COc1c(F)cccc1Nc1c(-c2ccnc(C)n2)[nH]c2c1C(=O)NCC2C[C@H]1COCCO1 (single isomer, unassigned) [Compound 606]
< 100 nM

Dear colleague, please send me the reported IC50 for COc1c(Cl)cccc1Nc1c(-c2ccnc(Nc3ccn(CC(C)(C)O)n3)n2)[nH]c2c1C(=O)NCC2 when you can.
< 100 nM

Let me know recorded IC50 for C=CC(=O)N1CC[C@@]2(CNC(=O)c3c2[nH]c(-c2ccncc2F)c3Nc2cccc(Cl)c2OC)C1 , thanks.
100 to 1000 nM

Respond only with IC50 recorded for COc1c(Cl)cccc1Nc1c(-c2ccncc2F)[nH]c2c1C(=O)NC[C@H]2CC1COC1 [468b]
100 to 1000 nM

The measured values listed here are drawn from patent US20240101576A1.
